experiment: Kinetic solubility; details: kinetic from dmso stock, Solubility, kinetic solubility; n = 1 or average of n = 2-3
So I've got a bunch of molecules here, and I need their solubility values.
Output spec: scalar in µM, unitless text.

Look up solubility for this molecule: CS(=O)(=O)C[C@H]1CN(c2ccc3nccc(C(=O)NCC(=O)N4CSC[C@H]4C#N)c3c2)CCO1 [Example 92]
810

So what does the record say about solubility for CN1CCC(F)(c2ccc3nccc(C(=O)NCC(=O)N4CSC[C@H]4C#N)c3c2)CC1 [Example 195] ?
830

Fill in the blank: the reported solubility of C[C@H]1N(c2ccc3nccc(C(=O)NCC(=O)N4CSC[C@H]4C#N)c3c2)CC1(F)F (mixture of isomers) [Example 159] is ____.
550

* * *

For each of the compounds below, state its IC50.
molecular target: FAP (Homo sapiens (Human)); assay: hFAP inhibition assay; format: biochemical; conditions: hFAP […], Ala-Pro-AMC 20 μM; n = 1 or geometric mean n = 2-3
Dear colleague, please return just the value in nM, with no unit written.

IC50 lookup needed for N#C[C@@H]1CSCN1C(=O)CNC(=O)c1ccnc2ccc(N3CC(Cc4ccc(Cl)cc4)C3)cc12 [Example 187] , thanks.
0.098

Fill blank: measured IC50 of the compound N#C[C@@H]1CSCN1C(=O)CNC(=O)c1ccnc2ccc(N3CCSCC3)cc12 [Example 3] is ____.
0.24

Return reported IC50; argument: N#C[C@@H]1CSCN1C(=O)CNC(=O)c1ccnc2ccc(N3CC4CCCC4C3)cc12 (stereo partly drawn) [Example 53]
0.27

* * *

test: Kinetic solubility; details: kinetic from dmso stock, Solubility, kinetic solubility; n = 1 or average of n = 2-3
Provide the reported solubility of each item.

Item under review: "N#C[C@@H]1CSCN1C(=O)CNC(=O)c1ccnc2ccc(-n3ccc(-c4ccccc4)c3)cc12" . Reported solubility?
< 0.16 µM

Which solubility value is on record for "N#C[C@@H]1CSCN1C(=O)CNC(=O)c1ccnc2ccc(N3C4CCC3COC4)cc12" ?
> 1000 µM

What value of measured solubility is listed for "CC1(CC(F)F)CN(c2ccc3nccc(C(=O)NCC(=O)N4CSC[C@H]4C#N)c3c2)C1" ?
< 380 µM

* * *

For each record, write down the corresponding IC50.
biological target: FAP (Homo sapiens (Human), UniProt Q12884); assay: hFAP inhibition assay; assay type: biochemical; conditions: hFAP […], Ala-Pro-AMC 20 μM; n = 1 or geometric mean n = 2-3
Sequence (Q12884 38-760): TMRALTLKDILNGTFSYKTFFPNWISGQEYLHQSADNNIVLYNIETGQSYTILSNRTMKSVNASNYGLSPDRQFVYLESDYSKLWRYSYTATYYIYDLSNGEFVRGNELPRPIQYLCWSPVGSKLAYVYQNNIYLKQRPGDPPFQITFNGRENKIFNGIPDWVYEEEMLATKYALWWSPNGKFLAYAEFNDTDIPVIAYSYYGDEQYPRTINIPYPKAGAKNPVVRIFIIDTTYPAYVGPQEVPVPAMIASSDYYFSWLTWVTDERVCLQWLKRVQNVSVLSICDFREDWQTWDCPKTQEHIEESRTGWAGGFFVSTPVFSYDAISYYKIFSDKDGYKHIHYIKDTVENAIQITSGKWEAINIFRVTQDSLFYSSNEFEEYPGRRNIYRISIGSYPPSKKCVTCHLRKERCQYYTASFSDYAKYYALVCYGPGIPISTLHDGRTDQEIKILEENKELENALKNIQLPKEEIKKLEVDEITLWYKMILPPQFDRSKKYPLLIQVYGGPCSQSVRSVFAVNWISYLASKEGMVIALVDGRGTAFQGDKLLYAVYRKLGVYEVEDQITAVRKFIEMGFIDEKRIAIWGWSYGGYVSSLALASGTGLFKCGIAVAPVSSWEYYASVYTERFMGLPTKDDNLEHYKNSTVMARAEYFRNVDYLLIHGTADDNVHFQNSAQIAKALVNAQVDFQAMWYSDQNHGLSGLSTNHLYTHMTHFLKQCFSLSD
Provide only the numeric value, understood in nM.

Item under review: N#C[C@@H]1CSCN1C(=O)CNC(=O)c1ccnc2ccc(N3CCCCC3)cc12 [Example 32] . Reported IC50?
0.3

Entry N#C[C@@H]1CSCN1C(=O)CNC(=O)c1ccnc2ccc(N3C4CCC3COC4)cc12 [Example 98] : reported IC50 = ?
0.27

Entry under review: N#C[C@@H]1CSCN1C(=O)CNC(=O)c1ccnc2ccc(N3C4CCC3CC4)cc12 [Example 209] . Reported IC50?
0.44

* * *

biological target: hFAP (M39-A757) (Homo sapiens (Human), UniProt Q12884)
Sequence (Q12884 39-757): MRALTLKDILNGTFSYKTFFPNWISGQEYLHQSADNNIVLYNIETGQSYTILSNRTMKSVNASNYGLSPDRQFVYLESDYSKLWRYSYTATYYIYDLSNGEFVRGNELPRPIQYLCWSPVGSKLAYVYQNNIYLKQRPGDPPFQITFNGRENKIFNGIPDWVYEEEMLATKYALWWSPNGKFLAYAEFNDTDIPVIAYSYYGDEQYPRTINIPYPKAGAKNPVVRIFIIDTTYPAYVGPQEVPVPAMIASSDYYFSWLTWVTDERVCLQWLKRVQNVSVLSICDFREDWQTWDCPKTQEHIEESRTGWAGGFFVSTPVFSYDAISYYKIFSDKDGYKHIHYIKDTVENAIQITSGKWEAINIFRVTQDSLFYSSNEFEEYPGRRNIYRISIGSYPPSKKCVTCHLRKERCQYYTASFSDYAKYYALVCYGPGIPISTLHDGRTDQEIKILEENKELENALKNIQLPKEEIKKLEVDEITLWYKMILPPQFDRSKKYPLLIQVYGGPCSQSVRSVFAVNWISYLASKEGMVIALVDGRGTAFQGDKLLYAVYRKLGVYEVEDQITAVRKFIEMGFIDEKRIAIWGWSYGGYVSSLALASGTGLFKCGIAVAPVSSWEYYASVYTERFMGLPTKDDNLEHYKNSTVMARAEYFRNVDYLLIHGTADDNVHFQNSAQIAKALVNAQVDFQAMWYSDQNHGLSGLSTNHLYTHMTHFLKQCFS
Assign pKd to each entry below.
pKd here is simply -log10 of the concentration when that concentration is written in mol/L.

Would you mind telling me what pKd value was observed for N#C[C@@H]1CSCN1C(=O)CNC(=O)c1ccnc2ccc(N3CC(CF)C3)cc12 [Example 113] ?
10.51

So what's the measured pKd for this one? N#C[C@@H]1CSCN1C(=O)CNC(=O)c1ccnc2ccc(N3C[C@@H]4[C@H](C3)[C@H]4C(F)(F)F)cc12 [Example 208]
10.34

I am curious: what pKd value has been reported for N#C[C@@H]1CSCN1C(=O)CNC(=O)c1ccnc2ccc(N3CC4CC(C3)O4)cc12 [Example 77] ?
10.85

Query: pKd; subject: N#C[C@@H]1CSCN1C(=O)CNC(=O)c1ccnc2ccc(N3CCOC[C@@H]3C(F)(F)F)cc12 (single isomer, unassigned) [Example 85]
10.49

Bench note: what pKd did COCC1(C)CN(c2ccc3nccc(C(=O)NCC(=O)N4CSC[C@H]4C#N)c3c2)C1 [Example 29] show?
10.24

Consider the compound N#C[C@@H]1CSCN1C(=O)CNC(=O)c1ccnc2ccc(N3CCCC(F)(F)C3)cc12 [Example 36] and give its measured pKd.
10.28

Given COC[C@H]1[C@H](C)OCCN1c1ccc2nccc(C(=O)NCC(=O)N3CSC[C@H]3C#N)c2c1 [Example 96] , state its recorded pKd.
10.17

Which measured pKd value corresponds to N#C[C@@H]1CSCN1C(=O)CNC(=O)c1ccnc2ccc(N3CC(Cc4ccc(Cl)cc4)C3)cc12 [Example 187] ?
10.15

So what's the measured pKd for this one? N#C[C@@H]1CSCN1C(=O)CNC(=O)c1ccnc2ccc(N3C4CCC3CC4)cc12 [Example 209]
10.70
